Quick reference for hERG current change (%, negative = inhibition) at 10uM among some compounds
molecular target: human ether-à-go-go-related gene (hERG) potassium channel (human, UniProt Q12809); experiment: primary screen, population patch clamp on CHO cells stably expressing hERG; higher = less effect of the substance;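 note: peak tail current of the secondary pulse compared with the same well before compound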
Sequence (Q12809 whole entry, looked up): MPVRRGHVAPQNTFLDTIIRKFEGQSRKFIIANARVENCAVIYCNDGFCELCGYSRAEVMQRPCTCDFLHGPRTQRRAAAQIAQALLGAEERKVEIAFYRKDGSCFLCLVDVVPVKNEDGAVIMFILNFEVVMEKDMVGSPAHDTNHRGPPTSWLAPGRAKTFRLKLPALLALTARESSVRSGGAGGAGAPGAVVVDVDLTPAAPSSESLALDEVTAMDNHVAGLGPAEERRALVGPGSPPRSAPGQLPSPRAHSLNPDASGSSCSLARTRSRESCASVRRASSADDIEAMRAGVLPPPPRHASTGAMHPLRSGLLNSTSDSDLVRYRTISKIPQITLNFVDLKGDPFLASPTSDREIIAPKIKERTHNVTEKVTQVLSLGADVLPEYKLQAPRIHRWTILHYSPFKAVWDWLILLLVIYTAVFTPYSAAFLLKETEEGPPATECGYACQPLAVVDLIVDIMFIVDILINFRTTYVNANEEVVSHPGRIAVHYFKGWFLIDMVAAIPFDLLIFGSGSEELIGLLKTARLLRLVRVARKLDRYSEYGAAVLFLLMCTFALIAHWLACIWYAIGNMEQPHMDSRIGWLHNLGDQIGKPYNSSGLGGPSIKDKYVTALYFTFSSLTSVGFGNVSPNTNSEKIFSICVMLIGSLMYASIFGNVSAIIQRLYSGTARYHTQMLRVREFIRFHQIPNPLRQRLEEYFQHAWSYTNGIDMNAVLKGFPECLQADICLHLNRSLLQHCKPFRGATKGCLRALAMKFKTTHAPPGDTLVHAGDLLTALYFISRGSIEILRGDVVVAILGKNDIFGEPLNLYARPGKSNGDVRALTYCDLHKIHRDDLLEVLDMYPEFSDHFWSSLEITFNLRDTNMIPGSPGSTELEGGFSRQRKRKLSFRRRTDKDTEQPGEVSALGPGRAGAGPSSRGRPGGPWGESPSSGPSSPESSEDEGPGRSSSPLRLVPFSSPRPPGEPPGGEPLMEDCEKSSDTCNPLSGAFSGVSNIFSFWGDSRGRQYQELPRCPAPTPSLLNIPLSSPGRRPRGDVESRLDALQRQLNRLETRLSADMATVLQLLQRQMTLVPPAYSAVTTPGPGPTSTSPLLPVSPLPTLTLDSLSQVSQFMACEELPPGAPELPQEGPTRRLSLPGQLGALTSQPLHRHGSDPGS
Among all 310,000 compounds or so, about 14,000 (4.5%) showed an effect of 50% or more. Effects have a minus sign here. Many of the other results were omitted from the sample, so strong results are more common in it than they were.
Give the value, in units of %, as a plain number.

{"SMILES REPR": "Cc1ccc(NC(=O)COC(=O)C2CCN(c3ccc(C(F)(F)F)cn3)CC2)cc1", "REPORTED MEASUREMENT": -1.26}
{"SMILES REPR": "COc1ccc(Nc2nc(NCCO)nc(N3CCCC3)n2)cc1", "REPORTED MEASUREMENT": -38.3}

Q: GET /values?readout=hERG current change (%, negative = inhibition) at 10uM&item= CN(CC(=O)Nc1ccccc1Cl)C(=O)COC(=O)C1CCN(c2ccc(C(F)(F)F)cn2)CC1
Result: -29.8

====

target: human ether-à-go-go-related gene (hERG) potassium channel (human, UniProt Q12809); assay: primary screen, population patch clamp on CHO cells stably expressing hERG; higher = less effect of the substance;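 note: peak tail current of the secondary pulse compared with the same well before compound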
The whole screen tested about 310,000 compounds, of which about 14,000 (4.5%) showed an effect of 50% or more. Effects have a minus sign here. Many of the other results were omitted from the sample, so strong results are more common in it than they were.
Entries and their measured hERG current change (%, negative = inhibition) at 10uM follow.
Output spec: scalar in %, unitless text.

Record excerpt, results attached:
{"MOLECULE": "Cc1ccc(-c2nc(C3CCCN(S(=O)(=O)c4ccc(C)cc4)C3)no2)cc1 (centres unmarked)", "TARGET": "human ether-à-go-go-related gene (hERG) potassium channel (human, UniProt Q12809)", "REPORTED MEASUREMENT": 12.2}
{"MOLECULE": "COc1ccc(Nc2nc3[nH]c(=O)cc(O)c3s2)cc1", "TARGET": "human ether-à-go-go-related gene (hERG) potassium channel (human, UniProt Q12809)", "REPORTED MEASUREMENT": 14.2}
{"MOLECULE": "Cn1c(SCC(=O)OC2CCCCC2)nnc1-c1ccco1", "TARGET": "human ether-à-go-go-related gene (hERG) potassium channel (human, UniProt Q12809)", "REPORTED MEASUREMENT": 0.11}
{"MOLECULE": "O=S(=O)(NCCc1ccncc1)c1ccccc1", "TARGET": "human ether-à-go-go-related gene (hERG) potassium channel (human, UniProt Q12809)", "REPORTED MEASUREMENT": 4.04}
{"MOLECULE": "O=C(CSc1nnc(-c2ccco2)n1Cc1ccccc1)c1ccc(F)cc1", "TARGET": "human ether-à-go-go-related gene (hERG) potassium channel (human, UniProt Q12809)", "REPORTED MEASUREMENT": -45.7}
{"MOLECULE": "CN(C)CCCn1c(NC(=O)C2CCCCC2)nc2ccccc21", "TARGET": "human ether-à-go-go-related gene (hERG) potassium channel (human, UniProt Q12809)", "REPORTED MEASUREMENT": -27.3}

Q: What does the data say about its hERG current change (%, negative = inhibition) at 10uM? Entry: O=C1CCCc2c1nc(-c1ccco1)n2O
Result: 12.1

Q: Look up hERG current change (%, negative = inhibition) at 10uM for this molecule: O=C(Nc1nc2ccccc2n1CCN1CCCC1)C1CCCCC1
Result: -58.6
